// data source = patent US9260408B2

Target: human CYP11B1 (Homo sapiens, UniProt P15538)
Sequence (P15538 25-503): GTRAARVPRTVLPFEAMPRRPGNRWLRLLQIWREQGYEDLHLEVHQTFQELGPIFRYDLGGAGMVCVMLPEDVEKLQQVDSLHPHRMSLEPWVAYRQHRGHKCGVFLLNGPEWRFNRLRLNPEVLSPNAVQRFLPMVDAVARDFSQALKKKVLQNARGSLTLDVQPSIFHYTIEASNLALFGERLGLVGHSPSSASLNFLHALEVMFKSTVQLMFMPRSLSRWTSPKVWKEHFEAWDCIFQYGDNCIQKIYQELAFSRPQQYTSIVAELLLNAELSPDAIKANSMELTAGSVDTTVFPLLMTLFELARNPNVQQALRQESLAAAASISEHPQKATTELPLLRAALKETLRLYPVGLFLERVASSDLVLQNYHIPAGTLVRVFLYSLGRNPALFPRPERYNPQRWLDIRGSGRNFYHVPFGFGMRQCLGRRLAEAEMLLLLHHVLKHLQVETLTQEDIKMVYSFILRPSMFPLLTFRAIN
Experiment: G-402 cellular enzyme assay, human CYP11B1 (cortisol release, HTRF)
Conditions: G-402 cells expressing human CYP11B1; 1 μM Deoxycortisol
Counter-ions that a name gives are not always drawn.
Recorded EC50 values for a group of compounds are listed next.
Report the value in nM with no unit label.

Some solved entries appear below for comparison.
Cc1c(CN)cncc1-c1cc2c(cc1F)N(C)C(=O)CC2 [Example 226, hydrochloride] ... 1770
CN1C(=O)CCc2cc(-c3cncc(O[C@H]4CC[C@H](NS(C)(=O)=O)CC4)c3)ccc21 [Example 245] ... 72
CN1C(=O)CCc2cc(-c3cncc(OCCNC(=O)c4ncccc4Cl)c3)c(F)cc21 [Example 244] ... 75
CCS(=O)(=O)N1CC[C@H]1COc1cncc(-c2ccc3c(c2)CCC(=O)N3C)c1 [Example 165] ... 494

# EC50 lookup, item CN1C(=O)CCc2cc(-c3cncc(CNC(=O)c4ncccn4)c3)ccc21 [Example 99] 1120

Form field: reported EC50 of CN1C(=O)CCc2cc(-c3cncc(OCCNC(=O)c4cnn(C)c4)c3)ccc21 [Example 103] 2930

Using the record for CN1C(=O)CCc2cc(-c3cncc(CNS(=O)(=O)c4cnn(C)c4)c3)ccc21 [Example 159] , report its EC50. 7930
